# test-summary: chemical genetic growth profiling, strain panel (AID 1159580);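 also: tested at 20 µM; growth read once vehicle control cultures reached saturation at 30 °C; 1 = growth at the plate median or of vehicle wells; lower values mean less growth of the strain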
# experimental-conditions: S. cerevisiae deletion strains, growth OD, locus YNL020C, strain ARK1, active compounds read low
Hit rate of the full screen: of about 5,500 compounds, about 2,000 (36%) were called active. About 18% were inconclusive and are not listed. The list shows a part of the results.
// reported normalized growth per item
I'd appreciate a reply containing only the number, no unit.

[[record]]
entry_smiles = "O=C(Nc1ccc(OC(F)(F)F)cc1)Nc1cncc(C(F)(F)F)c1"
quantity_measured = "normalized growth"
test_result = 0.914


Item: CCCCCc1ccc(-c2nc(SCC(C)=O)n[nH]2)cc1 | normalized growth: 0.856

Documented normalized growth of Nc1ccc(N2CCN(c3ccc(C(F)(F)F)cn3)CC2)nc1 : 0.95

The measured values listed here are drawn from PubChem BioAssay AID1159580.
